- Test system: HCC 2998
- experiment_summary: NCI tumour cell line growth inhibition, 48 h
Activity calls are given as the source filed them. Rule as the data show it: active = GI50 up to about 1.1 µM and inactive = higher.
// allowed return values: active, inactive

Here are 3 compounds together with their reported answers.
CO[C@H](c1ccccc1)[C@H](O)[C@](O)(c1ccccc1)P(=O)(OC)OC
inactive
Cc1nc(-c2ccc(/N=C/c3ccc(N(CCOS(C)(=O)=O)CCOS(C)(=O)=O)cc3C)cc2)cs1
inactive
CCN(CC)c1c(C)nnn1C1OC(COC(C)=O)C(OC(C)=O)C(OC(C)=O)C1OC(C)=O (stereo unspecified)
inactive

Challenge: Short answer needed: outcome of this test for O=c1[nH]nc(Nc2ccccc2)c2nnn(Cc3ccccc3)c12 ?
Response given: inactive

Challenge: N[C@H](C(=O)O)[C@H]1ON=C(Cl)[C@@H]1O , same question.
Response given: inactive

Challenge: Also CC(=O)OC[C@H]1CN(OC(C)=O)C[C@@H](n2cc(C)c(=O)[nH]c2=O)O1 ?
Response given: inactive

Challenge: Now the compound C[C@H]1C[C@@H]2[C@H]([C@@H](O)C[C@@]3(C)[C@H]2CC[C@]3(O)C(=O)CO)[C@@]2(C)C=CC(=O)C=C12
Response given: inactive

Challenge: What would you report for Cc1cccc(/N=N/C(=O)NNc2cccc(C)c2C)c1C ?
Response given: inactive

Challenge: Repeat for the following compound: CCCCn1c(CSc2ccc(Cl)cc2)c(C(=O)OCC)c2cc(OC)c(Br)cc21
Response given: inactive

Challenge: Another compound to look at: CC(=O)OC1COC(n2ccc3cc(Br)c([N+](=O)[O-])cc32)C(OC(C)=O)C1OC(C)=O (stereo unspecified)
Response given: inactive

Challenge: Request: c1ccc(CNCCCNCCCCNCCCNCc2ccccc2)cc1
Response given: inactive

Challenge: One more compound: Cn1nc(N)nc1N=S(C)(C)=N
Response given: inactive

Challenge: Also check COC(=O)C(Cc1nc2ccc(Cl)cc2nc1O)C(=O)C(=O)Nc1ccccc1[N+](=O)[O-] (stereo unspecified)
Response given: inactive

Challenge: Now the compound Cc1ccc(CC2(OCCN(C)C)CCC(C(C)(C)C)CC2)cc1 (stereo unspecified)
Response given: inactive

Challenge: How about O=C(O)C1(C(=O)O)CC1(C(=O)O)C(=O)O ?
Response given: inactive

Challenge: Lookup CC1C(=O)OC2CC[N+]3(CC(=O)c4ccc(Br)cc4)CC=C(COC(=O)C(C)(O)C1(C)O)C23 (stereo unspecified)
Response given: inactive

Challenge: Please do the same for CCN(CC)CCCNC(=O)c1ccc([N+](=O)[O-])cc1O as well.
Response given: inactive

Challenge: Same question, COc1cccc(/C=C2\N=C(c3ccccc3)OC2=O)c1 this time
Response given: inactive

Challenge: Further, for CC(C)(C)C1=Nc2c(Br)cc(C(C)(C)C)cc2C(C(F)(F)F)(C(F)(F)F)O1 ?
Response given: inactive

Challenge: // query: COc1cc(C(CN)N(C)C)cc(OC)c1OC (stereo unspecified)
Response given: inactive

Challenge: Now try C=CCN(c1cc(OCc2ccccc2)c2c(c(C)cn2S(=O)(=O)c2ccc([N+](=O)[O-])cc2)c1[N+](=O)[O-])S(C)(=O)=O .
Response given: inactive

Challenge: And then COc1ccc(NC(=O)CSc2nc(C)nc3c2sc(=S)n3-c2ccccc2)cc1 , what is it?
Response given: inactive
